assayText: Excitation and fluorescence emission wavelength measurement
Type: physicochemical
assaySetup: aqueous solution: 10 mg/mL solution in DMSO diluted 500-fold with purified water
Quick reference for Fluorescence emission wavelength λem among some compounds

| compound | Fluorescence emission wavelength λem (nm) |
| --- | --- |
| COc1ccc(N2c3ccc(/C=C/C4=[N+](CCC(=O)O)c5ccccc5C4(C)C)cc3C3CCCC32)cc1 (stereo not drawn) [Dye 76] | 671 |
| CSc1ccc(N2c3ccc(/C=C(/C#N)C(=O)O)cc3C3CCCC32)cc1 (stereo not drawn) [Dye 135] | 600 |
| O=C(O)CCN1C(=O)/C(=C\c2ccc3c(c2)C2CCCC2N3c2ccccc2)SC1=S (stereo not drawn) [Dye 130] | 619 |
| O=C(O)C1=NN(c2ccccc2)C(=O)/C1=C\c1cc(Br)c2c(c1)C1CCCC1N2c1ccc(Br)cc1 (stereo not drawn) [Dye 42] | 618 |
| CC1(C)C(/C=C/C=C/C=C/C=C2\N(CCCCS(=O)(=O)O)c3ccc4ccccc4c3C2(C)C)=[N+](CCCCS(=O)(=O)[O-])c2ccc3ccccc3c21 [ICG, indocyanine green, reference compound] | 811 |
| CCN1c2ccc(/C=C3/SC(=S)N(CC(=O)O)C3=O)cc2C2CCCC21 (stereo not drawn) [Dye 109] | 600 |
| O=C(O)CCN1C(=O)/C(=C\c2cc(Br)c3c(c2)C2CCCC2N3c2ccc(Br)cc2)SC1=S (stereo not drawn) [Dye 29] | 575 |
| CSc1ccc(N2c3ccc(/C=C4/SC(=S)N(CC(=O)O)C4=O)cc3C3CCCC32)cc1 (stereo not drawn) [Dye 17] | 636 |
| CCN1C(=O)/C(=c2\s/c(=C/c3ccc4c(c3)C3CCCC3N4c3ccc(OC)cc3)c(=O)n2CC)SC1=S (stereo not drawn) [Dye 68] | 667 |
| C[n+]1c(/C=c2\s/c(=C/c3ccc4c(c3)C3CCCC3N4c3ccc(C=C(c4ccccc4)c4ccccc4)cc3)c(=O)n2CC(=O)O)sc2ccccc21 (stereo not drawn) [Dye 136] | 760 |
| COc1ccc2cc(N3c4ccc(/C=C5/SC(=S)N(CCC(=O)O)C5=O)cc4C4CCCC43)ccc2c1 (stereo not drawn) [Dye 20] | 661 |
| CCN1C(=O)/C(=c2\s/c(=C/c3ccc4c(c3)C3CCCC3N4c3ccccc3)c(=O)n2CC(=O)O)SC1=S (stereo not drawn) [Dye 30] | 644 |
| CC1(C)C(/C=C/c2ccc3c(c2)C2CCCC2N3c2ccc(C=C(c3ccccc3)c3ccccc3)cc2)=[N+](CCC(=O)O)c2ccccc21 (stereo not drawn) [Dye 35] | 720 |
| CC1=NN(c2ccc(C(=O)O)cc2)C(=O)/C1=C\c1ccc2c(c1)C1CCCC1N2Cc1ccccc1 (stereo not drawn) [Dye 44] | 558 |
| COc1ccc(N2c3ccc(/C=C(/C#N)C(=O)O)cc3C3CCCC32)cc1 (stereo not drawn) [Dye 131] | 580 |
